Every entry's value here was drawn from the kinase profiling compilation of Christmann-Franck et al. (2016).

Each item that follows carries a reported residual activity.
target: PRKCE (human) (UniProt Q02156); test: radiometric filter-binding kinase assay, Kinase HotSpot; conditions: compound 0.5 µM; ATP 10 µM
Sequence (Q02156 whole entry, looked up): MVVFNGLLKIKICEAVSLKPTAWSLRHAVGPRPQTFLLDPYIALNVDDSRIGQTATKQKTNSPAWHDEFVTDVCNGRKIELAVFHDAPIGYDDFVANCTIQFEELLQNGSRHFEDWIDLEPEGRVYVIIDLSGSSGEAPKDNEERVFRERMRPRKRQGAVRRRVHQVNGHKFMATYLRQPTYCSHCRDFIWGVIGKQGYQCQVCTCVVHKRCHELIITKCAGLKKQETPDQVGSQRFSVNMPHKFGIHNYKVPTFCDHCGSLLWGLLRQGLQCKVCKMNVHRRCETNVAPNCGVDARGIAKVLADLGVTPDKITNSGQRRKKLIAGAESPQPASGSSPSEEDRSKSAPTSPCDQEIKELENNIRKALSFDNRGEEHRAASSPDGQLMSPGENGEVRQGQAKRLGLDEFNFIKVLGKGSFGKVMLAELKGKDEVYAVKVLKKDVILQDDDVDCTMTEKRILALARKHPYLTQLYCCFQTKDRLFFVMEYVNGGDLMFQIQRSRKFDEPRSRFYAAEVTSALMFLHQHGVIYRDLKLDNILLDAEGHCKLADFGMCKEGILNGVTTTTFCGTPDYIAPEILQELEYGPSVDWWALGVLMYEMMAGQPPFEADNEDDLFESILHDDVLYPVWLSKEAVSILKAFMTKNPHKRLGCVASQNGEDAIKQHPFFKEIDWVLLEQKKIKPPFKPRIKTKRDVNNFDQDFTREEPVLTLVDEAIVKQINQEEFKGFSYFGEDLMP
Your answer is read as %, so omit the unit and give the number.

Examples with their reported residual activity follow.
MOLECULE	residual activity [%]
O=C1Cc2c([nH]c3ccc([N+](=O)[O-])cc23)-c2ccccc2N1	111
O=C(Nc1ccc(Cl)cc1)c1ccccc1NCc1ccncc1	97
O=C1Nc2ccccc2/C1=C\c1c(Cl)[nH]c2ccccc12	95.1
COc1cc2ncnc(Nc3ccc(F)c(Cl)c3)c2cc1OCCCN1CCOCC1	97.3
COc1cc2nccc(Oc3ccc(NC(=S)NC(=O)c4ccccc4C)cc3)c2cc1OC	99.7
Cc1ccc(NC(=O)c2ccc(CN3CCN(C)CC3)cc2)cc1Nc1nc(-c2cccnc2)cs1	100
O=C(NC(NC(=S)Nc1ccc(F)c([N+](=O)[O-])c1)C(Cl)(Cl)Cl)C(c1ccccc1)c1ccccc1 (centres undefined)	109
O=c1cc(N2CCNCC2)oc2c(-c3ccccc3)cccc12	104

Given CS(=O)c1ccc(-c2nc(-c3ccc(F)cc3)c(-c3ccncc3)[nH]2)cc1 (centres undefined) , state its recorded residual activity.
115

====

target: CLK2 (human); assay: radiometric filter-binding kinase assay, Kinase HotSpot; details: compound 0.5 µM; ATP 10 µM
MEASURED ATTRIBUTE: residual activity (%)
Note: unit % is implicit; provide only the numeric part.

Below, each entry is followed by its recorded residual activity result.
MOLECULE	residual activity (%)
COc1cc2nccc(Oc3ccc(NC(=S)NC(=O)c4ccccc4C)cc3)c2cc1OC	107
Nc1nc(Nc2ccc(S(N)(=O)=O)cc2)nn1C(=S)Nc1c(F)cccc1F	3.81
Cc1cc2ncc(-c3ccccc3)nc2cc1C	102
O=C(NC(NC(=S)Nc1ccc(F)c([N+](=O)[O-])c1)C(Cl)(Cl)Cl)C(c1ccccc1)c1ccccc1 (stereo not given)	93.5
NC(=O)c1ccc(N(C(N)=O)c2c(F)cccc2F)nc1-c1ccc(F)cc1F	86.9
COc1ccc(-c2cnc3c(-c4ccsc4)cnn3c2)cc1	83.8
Nc1nc(Nc2ccc(S(N)(=O)=O)cc2)nn1C(=O)c1c(F)cccc1F	71.5
CCCNC(=O)Nc1ccc(Oc2ncnc3cc(OC)c(OC)cc23)cc1Cl	89.5
C#Cc1cccc(Nc2ncnc3cc(OCCOC)c(OCCOC)cc23)c1	93.4

Turning now to a further molecule:
Sample `Oc1ccc(-c2nc(-c3ccc(F)cc3)c(-c3ccncc3)[nH]2)cc1` — what was its residual activity?
105

====

target: PRKCB1 (human); assay: radiometric filter-binding kinase assay, Kinase HotSpot; details: compound 0.5 µM; ATP 10 µM
Entries and their residual activity
Provide the reading as a plain figure in %.

Observe how each entry below is paired with its result.
MOLECULE	MEASURED ATTRIBUTE	UNIT SYMBOL	REPORTED RESULT
Clc1ccc(Nc2nnc(Cc3ccncc3)c3ccccc23)cc1	residual activity	%	83.5
CS(=O)c1ccc(-c2nc(-c3ccc(F)cc3)c(-c3ccncc3)[nH]2)cc1 (configuration not stated)	residual activity	%	74
O=C(NC(NC(=S)Nc1ccc(F)c([N+](=O)[O-])c1)C(Cl)(Cl)Cl)C(c1ccccc1)c1ccccc1 (configuration not stated)	residual activity	%	103
O=c1cc(-c2cccc3c2Sc2ccccc2S3)oc(N2CCOCC2)c1	residual activity	%	103
COc1cc2ncnc(Nc3ccc(F)c(Cl)c3)c2cc1OCCCN1CCOCC1	residual activity	%	95

Which residual activity reading was recorded for the molecule `O=C(Nc1ccc(Cl)cc1)c1ccccc1NCc1ccncc1` ?
98.1

Likewise for `COc1cc2nccc(Oc3ccc(NC(=S)NC(=O)c4ccccc4C)cc3)c2cc1OC` ?
91.9

Again, but for `NC(=O)c1ccc(N(C(N)=O)c2c(F)cccc2F)nc1-c1ccc(F)cc1F`
86.1

Similarly, `O=c1cc(N2CCNCC2)oc2c(-c3ccccc3)cccc12` ?
91.6

Similarly, `O=C1Cc2c([nH]c3ccc([N+](=O)[O-])cc23)-c2ccccc2N1` ?
105

// repeat for `Oc1ccc(-c2nc(-c3ccc(F)cc3)c(-c3ccncc3)[nH]2)cc1` and report
63.7

Request: `COc1ccc(-c2cnc3c(-c4ccsc4)cnn3c2)cc1`
101

And then CSc1nc(-c2ccc(F)cc2)c(-c2ccnc(NC(C)c3ccccc3)c2)[nH]1 (configuration not stated) , what is it?
92.2

Follow-up item: `Cc1ccc(NC(=O)c2ccc(CN3CCN(C)CC3)cc2)cc1Nc1nc(-c2cccnc2)cs1`
101

====

target: TBK1 (human) (UniProt Q9UHD2); assay: radiometric filter-binding kinase assay, Kinase HotSpot; conditions: compound 0.5 µM; ATP 10 µM
Sequence (Q9UHD2 whole entry, looked up): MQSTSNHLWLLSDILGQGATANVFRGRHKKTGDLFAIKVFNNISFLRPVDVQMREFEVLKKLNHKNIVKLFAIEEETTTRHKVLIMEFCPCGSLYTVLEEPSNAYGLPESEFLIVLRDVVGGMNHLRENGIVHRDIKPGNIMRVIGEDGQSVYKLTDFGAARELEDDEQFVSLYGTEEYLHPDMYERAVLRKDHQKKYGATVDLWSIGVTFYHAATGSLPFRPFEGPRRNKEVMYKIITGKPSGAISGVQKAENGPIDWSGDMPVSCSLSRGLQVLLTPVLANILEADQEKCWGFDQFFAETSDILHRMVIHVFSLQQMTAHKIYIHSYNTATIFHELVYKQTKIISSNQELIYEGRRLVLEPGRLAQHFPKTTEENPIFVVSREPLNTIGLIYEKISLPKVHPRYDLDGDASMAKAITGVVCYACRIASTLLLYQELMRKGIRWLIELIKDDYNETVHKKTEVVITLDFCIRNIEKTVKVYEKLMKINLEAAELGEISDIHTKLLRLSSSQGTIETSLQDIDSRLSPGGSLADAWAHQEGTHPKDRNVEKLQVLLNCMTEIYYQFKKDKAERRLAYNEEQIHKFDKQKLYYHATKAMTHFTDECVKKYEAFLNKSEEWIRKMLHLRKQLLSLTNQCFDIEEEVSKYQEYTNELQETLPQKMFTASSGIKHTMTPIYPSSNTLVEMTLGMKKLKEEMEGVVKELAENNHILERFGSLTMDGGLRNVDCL
Criterion: residual activity strictly less than 90%. Met: 1. Not met: 0.

Solved cases (3 shown):
MOLECULE	LABEL CLASS
O=C1Cc2c([nH]c3ccc([N+](=O)[O-])cc23)-c2ccccc2N1	1
Nc1n[nH]c2nnc(-c3c(-c4ccccc4)nn4ccccc34)cc12	0
O=c1cc(N2CCNCC2)oc2c(-c3ccccc3)cccc12	0

Threshold test, residual activity < 90%: O=C(NC(NC(=S)Nc1ccc(F)c([N+](=O)[O-])c1)C(Cl)(Cl)Cl)C(c1ccccc1)c1ccccc1 (configuration not stated)
0

Let us now turn to `COc1cc2nccc(Oc3ccc(NC(=S)NC(=O)c4ccccc4C)cc3)c2cc1OC`
0

====

Entries and their residual activity
molecular target: NEK11 (human) (UniProt Q8NG66); experiment: radiometric filter-binding kinase assay, Kinase HotSpot; details: compound 0.5 µM; ATP 10 µM
Sequence (Q8NG66 whole entry, looked up): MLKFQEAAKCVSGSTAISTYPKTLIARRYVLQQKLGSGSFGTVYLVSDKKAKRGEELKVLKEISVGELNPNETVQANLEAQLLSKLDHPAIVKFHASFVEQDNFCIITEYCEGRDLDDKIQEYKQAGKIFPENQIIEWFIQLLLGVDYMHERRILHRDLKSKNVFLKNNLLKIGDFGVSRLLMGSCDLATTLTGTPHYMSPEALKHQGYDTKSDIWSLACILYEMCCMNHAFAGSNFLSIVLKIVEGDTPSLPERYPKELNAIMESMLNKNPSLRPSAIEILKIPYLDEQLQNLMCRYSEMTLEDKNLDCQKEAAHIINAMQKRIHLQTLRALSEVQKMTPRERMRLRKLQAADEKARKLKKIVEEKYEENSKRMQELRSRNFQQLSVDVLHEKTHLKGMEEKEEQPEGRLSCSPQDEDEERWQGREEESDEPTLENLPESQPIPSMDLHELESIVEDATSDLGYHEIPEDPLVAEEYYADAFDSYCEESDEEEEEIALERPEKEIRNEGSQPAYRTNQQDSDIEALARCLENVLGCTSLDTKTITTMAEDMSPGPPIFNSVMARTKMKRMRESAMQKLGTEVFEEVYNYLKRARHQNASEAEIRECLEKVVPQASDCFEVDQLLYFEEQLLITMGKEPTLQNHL
Field format: number, assumed %, no unit text.

MOLECULE	MEASURED ATTRIBUTE	UNIT SYMBOL	REPORTED RESULT
O=C1Nc2ccccc2/C1=C\c1c(Cl)[nH]c2ccccc12	residual activity	%	98.5
C#Cc1cccc(Nc2ncnc3cc(OCCOC)c(OCCOC)cc23)c1	residual activity	%	114
Nc1n[nH]c2nnc(-c3c(-c4ccccc4)nn4ccccc34)cc12	residual activity	%	95.1

Turning to the following molecule.
Param readout = residual activity; param system = NEK11 (human) (UniProt Q8NG66); param query = CSc1nc(-c2ccc(F)cc2)c(-c2ccnc(NC(C)c3ccccc3)c2)[nH]1 (centres undefined) ; response: value
108

====

molecular target: DSTYK (human) (UniProt Q6XUX3); assay: radiometric filter-binding kinase assay, Kinase HotSpot; settings: compound 0.5 µM; ATP 10 µM
Sequence (Q6XUX3 whole entry, looked up): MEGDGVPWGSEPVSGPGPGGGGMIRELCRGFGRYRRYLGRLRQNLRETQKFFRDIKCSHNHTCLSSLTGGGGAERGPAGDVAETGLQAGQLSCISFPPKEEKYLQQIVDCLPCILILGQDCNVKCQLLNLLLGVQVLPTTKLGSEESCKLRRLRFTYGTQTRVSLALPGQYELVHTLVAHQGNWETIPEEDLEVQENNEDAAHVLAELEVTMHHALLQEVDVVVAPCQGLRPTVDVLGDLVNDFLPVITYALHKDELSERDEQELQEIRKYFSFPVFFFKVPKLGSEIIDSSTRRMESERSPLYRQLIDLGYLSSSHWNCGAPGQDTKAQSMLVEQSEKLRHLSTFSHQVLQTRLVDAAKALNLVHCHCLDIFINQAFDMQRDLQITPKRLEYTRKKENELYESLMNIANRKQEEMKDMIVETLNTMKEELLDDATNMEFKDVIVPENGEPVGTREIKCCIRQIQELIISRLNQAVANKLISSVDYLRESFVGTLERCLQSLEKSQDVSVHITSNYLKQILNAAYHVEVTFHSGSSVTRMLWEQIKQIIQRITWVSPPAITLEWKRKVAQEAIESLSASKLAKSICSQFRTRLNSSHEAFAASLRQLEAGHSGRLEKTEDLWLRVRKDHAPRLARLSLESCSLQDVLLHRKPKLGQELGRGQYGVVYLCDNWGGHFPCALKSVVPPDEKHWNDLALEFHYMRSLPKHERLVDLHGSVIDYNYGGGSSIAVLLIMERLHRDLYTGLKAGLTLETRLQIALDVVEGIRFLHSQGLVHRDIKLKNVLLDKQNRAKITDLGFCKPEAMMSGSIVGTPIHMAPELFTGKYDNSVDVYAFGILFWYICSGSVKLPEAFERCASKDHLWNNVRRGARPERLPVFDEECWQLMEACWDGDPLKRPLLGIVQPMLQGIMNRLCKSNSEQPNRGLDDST
MEASURED ATTRIBUTE: residual activity (%)
Number in %, nothing else.

COMPOUND	TGT	residual activity / %
CCCNC(=O)Nc1ccc(Oc2ncnc3cc(OC)c(OC)cc23)cc1Cl	DSTYK (human) (UniProt Q6XUX3)	88.6
CC(C)n1cnc2c(Nc3cccc(Cl)c3)nc(NCCO)nc21	DSTYK (human) (UniProt Q6XUX3)	97
Nc1nc(Nc2ccc(S(N)(=O)=O)cc2)nn1C(=O)c1c(F)cccc1F	DSTYK (human) (UniProt Q6XUX3)	86.2

What measured residual activity goes with `Cc1cc2ncc(-c3ccccc3)nc2cc1C` ?
95.5

Note, next up: `O=c1cc(N2CCNCC2)oc2c(-c3ccccc3)cccc12`
92.8

Try the compound `CCN1/C(=C/C(C)=O)Sc2ccc(OC)cc21`
90.6

Record: O=C(NC(NC(=S)Nc1ccc(F)c([N+](=O)[O-])c1)C(Cl)(Cl)Cl)C(c1ccccc1)c1ccccc1 (configuration not stated)
100

And for `O=C(Nc1ccc(Cl)cc1)c1ccccc1NCc1ccncc1` ?
94.7

Repeat for the following compound: `O=c1cc(-c2cccc3c2Sc2ccccc2S3)oc(N2CCOCC2)c1`
93.4

Also need `COc1cc2ncnc(Nc3ccc(F)c(Cl)c3)c2cc1OCCCN1CCOCC1` , thanks.
101

====

# reported residual activity; entries follow
target: RIPK2 (human) (UniProt O43353); experiment: radiometric filter-binding kinase assay, Kinase HotSpot; details: compound 0.5 µM; ATP 10 µM
Sequence (O43353 whole entry, looked up): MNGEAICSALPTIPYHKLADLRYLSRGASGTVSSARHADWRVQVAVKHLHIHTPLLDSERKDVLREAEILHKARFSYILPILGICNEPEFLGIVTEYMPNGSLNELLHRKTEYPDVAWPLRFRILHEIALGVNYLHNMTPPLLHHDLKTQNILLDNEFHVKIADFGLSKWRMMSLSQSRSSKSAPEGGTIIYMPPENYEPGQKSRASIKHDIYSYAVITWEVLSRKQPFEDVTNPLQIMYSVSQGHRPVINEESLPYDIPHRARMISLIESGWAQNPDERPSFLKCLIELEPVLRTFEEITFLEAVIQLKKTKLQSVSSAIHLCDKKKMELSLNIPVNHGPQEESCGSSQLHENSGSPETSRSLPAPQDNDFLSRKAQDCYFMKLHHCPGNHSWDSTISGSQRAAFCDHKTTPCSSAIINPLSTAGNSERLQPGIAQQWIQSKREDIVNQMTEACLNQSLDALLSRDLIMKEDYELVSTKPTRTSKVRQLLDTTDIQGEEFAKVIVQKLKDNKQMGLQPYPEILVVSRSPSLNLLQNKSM
Your answer is read as %, so omit the unit and give the number.

Answered cases to consult:
LINE NOTATION	TGT	UNIT SYMBOL	residual activity
CCCNC(=O)Nc1ccc(Oc2ncnc3cc(OC)c(OC)cc23)cc1Cl	RIPK2 (human) (UniProt O43353)	%	84.8
COc1cc2nccc(Oc3ccc(NC(=S)NC(=O)c4ccccc4C)cc3)c2cc1OC	RIPK2 (human) (UniProt O43353)	%	89.2
CC(C)(C)c1nc2c3ccc(F)cc3c3c(=O)[nH]ccc3c2[nH]1	RIPK2 (human) (UniProt O43353)	%	34.6
CC(C)n1cnc2c(Nc3cccc(Cl)c3)nc(NCCO)nc21	RIPK2 (human) (UniProt O43353)	%	84.3
Nc1nc(Nc2ccc(S(N)(=O)=O)cc2)nn1C(=S)Nc1c(F)cccc1F	RIPK2 (human) (UniProt O43353)	%	19.7

Dear colleague, I am looking for the recorded residual activity of the following compound: `C#Cc1cccc(Nc2ncnc3cc(OCCOC)c(OCCOC)cc23)c1`
57.9

// same read-out, input: `Nc1n[nH]c2nnc(-c3c(-c4ccccc4)nn4ccccc34)cc12`
87

What do you get for `Oc1ccc(-c2nc(-c3ccc(F)cc3)c(-c3ccncc3)[nH]2)cc1` ?
46.8

Continue with `O=C1Nc2ccccc2/C1=C\c1c(Cl)[nH]c2ccccc12`
85.4
